Test system: Setaia fabei (SETFA)
EXPERIMENT DESCRIPTION: Post-emergence efficacy, glasshouse spray test
Assay type: in vivo
MEASUREMENT SETUP: Setaria faberi, post-emergence, 312 h; Application Rate 500 g/Ha; evaluated after 13 days; read-out: Control of weed species after post-emergence application, SETFA (100=total damage to plant; 0=no damage to plant)
Protocol: Seeds of a variety of test species were sown in standard soil in pots. […] After 13 days the test was evaluated (100=total damage to plant; 0=no damage to plant). […]
QUANTITY MEASURED: pest or weed control at 500 g/ha (%)
Give the value, in units of %, as a plain number.

{"columns": ["COMPOUND", "MEASUREMENT UNIT", "pest or weed control at 500 g/ha"],
 "data": [
  ["Nc1nnc(-c2cc[n+](CCS(=O)(=O)[O-])nc2)s1", "%", 100],
  ["CNC(=O)c1oc(-c2cc[n+](CCC(=O)OC)nc2)nc1C", "%", 30],
  ["O=S(=O)([O-])CC[n+]1ccc(-c2ncsn2)cn1", "%", 90]
]}

Q: Supply reported pest or weed control at 500 g/ha belonging to this compound: Cc1nsc(-c2cc[n+](CCS(=O)(=O)[O-])nc2)n1
Ans: 60

Q: Supply reported pest or weed control at 500 g/ha belonging to this compound: Cn1nc(C(F)(F)F)cc1-c1cc[n+](CCS(=O)(=O)[O-])nc1
Ans: 40
